Reference source for all entries: PubChem BioAssay (NCATS)

biological target: Tyrosyl-DNA phosphodiesterase 1 (Homo sapiens) (UniProt Q9NUW8); experiment: Confirmation Assay for Inhibitors of Tyrosyl-DNA Phosphodiesterase (TDP1) (AID 489007); settings: recombinant human TDP1 enzymatic activity, dose-response; note: potency is the fitted concentration of half-maximal effect; nearly all actives have a fitted effect of over 40% in size
Sequence (Q9NUW8 whole entry, looked up): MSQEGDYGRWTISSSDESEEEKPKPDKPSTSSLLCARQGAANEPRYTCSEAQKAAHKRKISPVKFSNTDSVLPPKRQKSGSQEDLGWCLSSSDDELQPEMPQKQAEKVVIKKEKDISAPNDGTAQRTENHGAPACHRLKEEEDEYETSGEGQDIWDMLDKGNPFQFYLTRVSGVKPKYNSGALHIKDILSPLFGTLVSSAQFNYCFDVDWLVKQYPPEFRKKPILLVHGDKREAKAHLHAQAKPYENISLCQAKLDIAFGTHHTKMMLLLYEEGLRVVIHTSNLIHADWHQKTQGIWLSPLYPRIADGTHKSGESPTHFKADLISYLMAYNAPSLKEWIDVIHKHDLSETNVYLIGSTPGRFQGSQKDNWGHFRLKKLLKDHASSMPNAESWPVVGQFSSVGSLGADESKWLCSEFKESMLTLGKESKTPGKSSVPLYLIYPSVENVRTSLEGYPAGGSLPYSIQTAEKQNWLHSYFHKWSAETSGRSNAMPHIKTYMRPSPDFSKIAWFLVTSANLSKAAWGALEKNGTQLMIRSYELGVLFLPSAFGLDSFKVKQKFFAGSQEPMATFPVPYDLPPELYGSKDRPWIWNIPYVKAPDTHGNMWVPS
Records with an inconclusive call do not appear. Calls of active or inactive are those of the source. Calls come from the whole dose curve; as a rule, active = well fitted inhibition curve with a large enough effect; inconclusive = small, poorly fitted or top-dose-only effect; inactive = flat fitted curve, though single readings scatter.
TEST_READOUT: Potency

Nc1cc([N+](=O)[O-])ccc1N1C(=O)CCCC1=O
15.8 µM (active)

QUERY: Write down measured Potency (Tyrosyl-DNA phosphodiesterase 1 (Homo sapiens) (UniProt Q9NUW8)) for this molecule. "O=C(O)c1ccc(/C=C/c2nc3sc4c(c3c(=O)[nH]2)CCC4)cc1"
RESULT: 112 µM (active)

QUERY: Write down measured Potency (Tyrosyl-DNA phosphodiesterase 1 (Homo sapiens) (UniProt Q9NUW8)) for this molecule. "CC(=O)c1ccc(NC(=O)c2ccc3nc(-c4ccco4)c(-c4ccco4)nc3c2)cc1"
RESULT: 7.08 µM (active)

QUERY: Write down measured Potency (Tyrosyl-DNA phosphodiesterase 1 (Homo sapiens) (UniProt Q9NUW8)) for this molecule. "Cc1nc(S/C(=C/c2ccc(OCc3ccc(C(=O)O)cc3)cc2)C(=O)O)n[nH]1"
RESULT: 35.5 µM (active)

QUERY: Write down measured Potency (Tyrosyl-DNA phosphodiesterase 1 (Homo sapiens) (UniProt Q9NUW8)) for this molecule. "O=C1c2ccccc2-c2onc3ccc(NCc4ccco4)c1c23"
RESULT: 7.08 µM (active)
